Where do these numbers come from? They come from paper PMC9478924.

- TGT: CHI-R1 (Rhipicephallus pulchellus (zebra tick or yellow back tick) | not stated)
- MEASUREMENT NOTES: SPR
READOUT TYPE: Kd (nM)
Kindly provide the numeric value in nM only, without the unit symbol.

-- ask Read off the recorded Kd for CCL14 (ligand) TKTESSSRGPYHPSECCFTYTTYKIPRQRIMDYYETNSQCSKPGIVFITKRGHSVCTNPSDKWVQDYIKDMKEN
-- reply 134
